target: hP2Y14R (Homo sapiens); construct: expressed in transfected cells; host or cells: CHO cells; test: Inhibition of fluorescent antagonist binding in whole hP2Y14R-expressing CHO cells (flow cytometry); conditions: Table 1; fluorescent antagonist 2, hP2Y14R-CHO cells, 3-4 determinations; read-out: IC50, hP2Y14R (μM, mean ± SEM)
Sequence (Q15391 whole entry): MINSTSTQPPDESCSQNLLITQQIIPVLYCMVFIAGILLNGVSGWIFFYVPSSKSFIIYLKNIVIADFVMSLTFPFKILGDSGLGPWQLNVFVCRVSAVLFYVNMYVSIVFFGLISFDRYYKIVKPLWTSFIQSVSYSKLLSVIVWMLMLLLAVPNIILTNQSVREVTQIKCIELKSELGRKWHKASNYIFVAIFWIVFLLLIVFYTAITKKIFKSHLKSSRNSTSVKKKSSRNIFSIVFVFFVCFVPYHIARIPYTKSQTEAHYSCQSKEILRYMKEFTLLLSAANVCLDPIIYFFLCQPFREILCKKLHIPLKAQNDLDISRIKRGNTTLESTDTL
result.type: IC50 (µM)

Nc1ccc(-c2cc(C(=O)O)cc(-n3cc(-c4ccc(C(F)(F)F)cc4)nn3)c2)cc1: 1.48
NC1(c2ccc(-c3cc(C(=O)O)cc(-n4cc(-c5ccc(C(F)(F)F)cc5)nn4)c3)cc2)CC1: 14.1
NCCCc1ccc(-c2cc(C(=O)O)cc(-n3cc(-c4ccc(C(F)(F)F)cc4)nn3)c2)cc1: 0.292
O=C(O)c1cc(-c2ccc(-c3cc(CCO)on3)cc2)cc(-n2cc(-c3ccc(C(F)(F)F)cc3)nn2)c1: 0.389
CC(C)(C)OC(=O)N1CCC(C(=O)Nc2ccc(-c3cc(C(=O)O)cc(-n4cc(-c5ccc(C(F)(F)F)cc5)nn4)c3)cc2)CC1: 22.5
NCC1(c2ccc(-c3cc(C(=O)O)cc(-n4cc(-c5ccc(C(F)(F)F)cc5)nn4)c3)cc2)CC1: 8.91
CC(C)(C)OC(=O)NCC1(c2ccc(-c3cc(C(=O)O)cc(-n4cc(-c5ccc(C(F)(F)F)cc5)nn4)c3)cc2)CC1: 18.8

FYI, the data here is from patent US20240150290A1.
